From: the METLIN SMRT retention time set (Domingo-Almenara et al. 2019)

Test: gradient 5% acetonitrile 3 min, to 50% in 2 min, to 85% in 15 min, held 3 min, 100 µL/min
Conditions: column: Zorbax Extend-C18 2.1 x 50 mm; eluents: water / acetonitrile, 0.1% formic acid
Attribute Measured: RP-LC retention time (s)

CCN(Cc1ccncc1)C1CN(S(=O)(=O)c2ccc3c(c2)CCC3)C1 = 686

A = CCC(=O)N1c2ccc(S(=O)(=O)CCC(=O)NCc3ccc(N(C)C)cc3)cc2CC1C (stereo not drawn)
B = CCSc1nnc(NC(=O)c2nnn(-c3nc4c(s3)CCCC4)c2C)s1
**Query** A or B : whose RP-LC retention time is greater? Lab note: record the label of whichever item you select.
**Result** B
(B: 1190 s, A: 617 s)

====

Experiment: gradient 5% acetonitrile 3 min, to 50% in 2 min, to 85% in 15 min, held 3 min, 100 µL/min
Settings: column: Zorbax Extend-C18 2.1 x 50 mm; eluents: water / acetonitrile, 0.1% formic acid
Attribute Measured: RP-LC retention time (s)

Cc1ccc(CN2C[C@@H](CO)[C@H](c3ccccn3)C2)nc1 = 559
Cc1ccc(N2CC(c3nc(Cn4cnc5ccccc5c4=O)no3)CC2=O)cc1C (stereo not drawn) = 789
Cc1cnc(C2CN(Cc3cccc(F)c3)C2)n1CC1CC1 = 554
Cc1nc2ccc(C(=O)NC(C)C)cc2nc1C = 649
COc1ccc(C2CCCN2C(=O)c2nn(C)cc2Cl)cc1 (stereo not drawn) = 770
COc1cc(C(=O)Oc2ccc(/C=C/c3ccccn3)cc2)cc(OC)c1OC = 689
CCn1cc(CCN2CCC(C(=O)Nc3ccc(C)cc3)CC2)c2cccnc21 = 644
CC(C)C(=O)Nc1cnc(-c2ccccc2)nc1 = 814
O=C(NCCc1csc(-c2ccccc2)n1)c1ccccc1C(F)(F)F = 883
O=C(Nc1ccc(Br)cc1)Nc1ccc2nc3n(c(=O)c2c1)CCCC3 = 740
CCc1ccccc1NC(=O)N1CCCC(Cn2cnc3cccnc32)C1 (stereo not drawn) = 719
CC(C)NC(=O)CN1C(=O)COc2ccc(C(=O)NC3CCCC3)cc21 = 712
COc1cccc(CNC(=O)Cn2c(=O)c3cc(-c4ccco4)nn3c3ncccc32)c1 = 771

====

Assay: gradient 5% acetonitrile 3 min, to 50% in 2 min, to 85% in 15 min, held 3 min, 100 µL/min
Details: column: Zorbax Extend-C18 2.1 x 50 mm; eluents: water / acetonitrile, 0.1% formic acid
Attribute Measured: RP-LC retention time (s)

O=C(Nc1ccc(F)cc1)Nc1ccc2nc3n(c(=O)c2c1)CCC3 = 688
CC1=C(c2ccccc2)S(=O)(=O)N=C1N1CCCN(C(=O)C2CCCO2)CC1 (stereo not drawn) = 702
CC(C)CNC(=O)c1cn(-c2ccc(NC(=O)C(C)C)cn2)cn1 = 702

====

Assay: gradient 5% acetonitrile 3 min, to 50% in 2 min, to 85% in 15 min, held 3 min, 100 µL/min
Settings: column: Zorbax Extend-C18 2.1 x 50 mm; eluents: water / acetonitrile, 0.1% formic acid
Attribute Measured: RP-LC retention time (s)

Take a look at these entries with their results.
CCN(CC)CCOC(=O)c1cc(Cl)c(N)cc1OC = 647
CCc1ccc(C(=O)Nc2ccc3c(c2)Sc2ncccc2C(=O)N3C)cc1 = 818
CCOCCCNC(=O)N1CCN(Cc2nc3cc(C(=O)NC(C)C)ccc3n2C)CC1 = 593
COc1ccc(-n2ccn3cc(-c4cc(OC)ccc4OC)nc3c2=O)cc1 = 828

I = CC(C)(Oc1ccc(Cl)cc1)C(=O)N1CCN(CC(O)c2cccs2)CC1 (stereo not drawn)
II = CCOc1ccc(S(=O)(=O)N2CCCC2c2nc(-c3ccc(Cl)cc3)no2)cc1 (stereo not drawn)
**Query** I or II : whose RP-LC retention time is greater? Lab note: record the label of whichever item you select.
**Result** II
(II: 1230 s, I: 603 s)

I = Cc1cc(C)cc(C(=O)N2CCN(c3nc(CN4CCOCC4)cs3)CC2)c1
II = COc1ccccc1-n1ccn(Cc2nc(-c3ccc(C(C)(C)C)cc3)no2)c(=O)c1=O
**Query** // select label with min value of measured RP-LC retention time from [ I , II ] Lab note: record the label of whichever item you select.
**Result** I

1 = Cc1nnc(NC(=O)CSc2nnc(-c3ccc(=O)n(C)c3)n2C)s1
2 = CCc1cc(=O)n(CC(=O)Nc2cc(F)ccc2F)c(N2CCOCC2)n1
**Query** 1 or 2 : whose RP-LC retention time is greater? Lab note: record the label of whichever item you select.
**Result** 2
(2: 770 s, 1: 532 s)

P = Cc1ccc(NC(=O)C2(C)Oc3cccnc3NC2=O)c(C)c1 (stereo not drawn)
Q = C[C@H](NC(=O)c1cc2ccccc2[nH]1)C(=O)NCCc1c[nH]c2ccccc12
**Query** P or Q : whose RP-LC retention time is greater? Lab note: record the label of whichever item you select.
**Result** Q

====

Assay: gradient 5% acetonitrile 3 min, to 50% in 2 min, to 85% in 15 min, held 3 min, 100 µL/min
Settings: column: Zorbax Extend-C18 2.1 x 50 mm; eluents: water / acetonitrile, 0.1% formic acid
Attribute Measured: RP-LC retention time (s)

Take a look at these entries with their results.
Cc1cc(=O)n(CC(=O)Nc2ccccc2F)c(N2CCc3ccccc3C2)n1 = 802
Cc1ccc(N2CCN(CC(O)COc3ccc([N+](=O)[O-])cc3)CC2)cc1 (stereo not drawn) = 601
Clc1ccc(-c2nnc(-c3cccnc3N3CCC4(CC3)OCCO4)o2)cc1 = 1010
Cc1ccc(C)c(S(=O)(=O)N2CCC3(CCC(CN4CCN(C)CC4)O3)CC2)c1 (stereo not drawn) = 638
CC1(CNC(=O)c2ccc3c(c2)OCO3)CCOCC1 = 664

1 = CCCCOc1ccc(-c2nc(C3CC(=O)N(c4ccc(OC)c(OC)c4)C3)no2)cc1 (stereo not drawn)
2 = Cc1ccc(C)c(NC(=O)Cn2c(N3CCCC3)nc(C)cc2=O)c1
**Query** 1 or 2 : whose RP-LC retention time is greater? Lab note: record the label of whichever item you select.
**Result** 1
(1: 1120 s, 2: 656 s)

P = COc1ccc(-c2csc(C)n2)cc1S(=O)(=O)N1CCN(c2cccc(C)c2C)CC1
Q = Cc1ccc(NC(=O)CN2CCC(C(=O)NCc3c(F)cccc3F)CC2)c(C)c1
**Query** P or Q : whose RP-LC retention time is greater? Lab note: record the label of whichever item you select.
**Result** P

a = Cc1ccc(S(=O)(=O)N2CCC(C)(C(=O)NCc3ccc(F)cc3)CC2)cc1
b = COc1ccc(N2CCn3c2nn(CC(=O)NCc2ccco2)c(=O)c3=O)cc1
**Query** a or b : whose RP-LC retention time is greater? Lab note: record the label of whichever item you select.
**Result** a

1 = CC1CCN(S(=O)(=O)c2nn(C)cc2C(=O)NCCc2cccs2)CC1
2 = CN(C(=O)c1cc(-c2cccs2)n(C2CCS(=O)(=O)C2)n1)C1CCS(=O)(=O)C1 (stereo not drawn)
**Query** 1 or 2 : whose RP-LC retention time is greater? Lab note: record the label of whichever item you select.
**Result** 1

I = Cn1c(=O)c(N2CCC(NC(=O)Nc3ccc4c(c3)OCO4)CC2)nc2ccccc21
II = Cc1ccc(-c2nc(-c3cccc(-c4ccnn4C)c3)no2)cc1
**Query** I or II : whose RP-LC retention time is greater? Lab note: record the label of whichever item you select.
**Result** II

====

Assay: gradient 5% acetonitrile 3 min, to 50% in 2 min, to 85% in 15 min, held 3 min, 100 µL/min
Details: column: Zorbax Extend-C18 2.1 x 50 mm; eluents: water / acetonitrile, 0.1% formic acid
Attribute Measured: RP-LC retention time (s)

Take a look at these entries with their results.
Cn1cnc(C(=O)N2CC(c3nc(CCOCC4CCOCC4)no3)C2)c1 = 579
CS(=O)(=O)Nc1cccc(NC(=O)c2ccc(N3CCCC3)nn2)c1 = 598
Cc1cn(C)c(CC(=O)NCCCN2CCCCCC2)c1C(=O)O = 593
COc1ccc(N2CCN(c3nc4ccc(C)cc4cc3-c3noc(C)n3)CC2)cc1 = 700
CCn1cc(CN2CCC(C(=O)NC(C)c3ccccc3)CC2)c2cc(OC)ccc21 (stereo unspecified) = 707

P = COc1cccc(N2CCN(C3=Nc4c(F)cccc4[C@H](CC(=O)O)N3c3cc(C(F)(F)F)ccc3OC)CC2)c1
Q = CN1CCN(CCNc2ccc(CO)c3sc4ccccc4c(=O)c23)CC1
R = Cc1ccc(C)c(-c2coc(-c3ccc(NC(=O)C4CCCCC4)cc3)n2)c1
**Query** Form: Sort by [RP-LC retention time] Order [ ascending ] Provide your answer as the labels ordered per the instruction.
**Result** Q, P, R

I = CCCCNC(=O)Cc1csc(-n2nc(C)c(Cl)c2C)n1
II = COc1ccc(NC(=O)c2c(O)c3cccnc3n(-c3ccc(F)cc3)c2=O)cc1
**Query** // select label with min value of measured RP-LC retention time from [ I , II ] Lab note: record the label of whichever item you select.
**Result** I
(I: 763 s, II: 1250 s)

I = CCc1nc(N2CCc3ccccc3C2)ncc1C(=O)O
II = CCCC(=O)Nc1ccc(CCc2nc3ccc(C(=O)NCC(C)C)cc3[nH]2)cc1
**Query** I or II : whose RP-LC retention time is greater? Lab note: record the label of whichever item you select.
**Result** I
(I: 953 s, II: 646 s)

a = COc1ccccc1-c1nc2nccc(-c3ccsc3)n2n1
b = CSc1ncccc1C(=O)N1CCc2nc(C)ncc2C1
**Query** a or b : whose RP-LC retention time is greater? Lab note: record the label of whichever item you select.
**Result** a

a = CC1=C(C(=O)OC(C)C)C(c2cc3c(cc2Br)OCO3)NC(=O)N1 (stereo unspecified)
b = O=c1c2sccc2n(Cc2nc(-c3ccc(C(F)(F)F)cc3)no2)c(=O)n1CCc1ccccc1
**Query** a or b : whose RP-LC retention time is greater? Lab note: record the label of whichever item you select.
**Result** b
(b: 1270 s, a: 748 s)

a = Cc1cccc2c(=O)n(C3CCN(S(=O)(=O)c4ccc(F)cc4)CC3)cnc12
b = CNC(=O)N1CCC(C2CCN(C(=O)CN3CCCC3=O)C2)CC1 (stereo unspecified)
**Query** // select label with min value of measured RP-LC retention time from [ a , b ] Lab note: record the label of whichever item you select.
**Result** b
(b: 585 s, a: 949 s)

A = CCCOC(=O)C1=C(C)NC2=C(C(=O)C(C(=O)OC)C(C)C2)C1c1cccc(F)c1 (stereo unspecified)
B = Cc1cc(Cc2ccc(S(=O)(=O)N3CCN(C)CC3)cc2)c(=O)[nH]n1
**Query** A or B : whose RP-LC retention time is greater? Lab note: record the label of whichever item you select.
**Result** A
(A: 994 s, B: 575 s)
